- test-protocol: Equilibrium solubility by HPLC, Form C, ambient temperature
- Assay type: physicochemical
- protocol-conditions: Kolliphor P188 0.4 mM (3.2× cmc), aqueous with cosolvent or surfactant or cyclodextrin, thermodynamic from solid, Kolliphor P188; 0.4 mM (3.2× cmc); read-out: Solubility by HPLC
measure-name: solubility (µg/mL)
The response must be a number in µg/mL with no trailing unit.

### Prompt Quickly give me recorded solubility for CC(=O)N1CCc2c(C(=O)N3CCC(c4ccc(F)c(F)c4C(F)(F)F)CC3)n[nH]c2C1 [Compound 1]
### Response 1.6

---

- test-protocol: Equilibrium solubility by HPLC, Form C, ambient temperature
- Format: physicochemical
- protocol-conditions: Canola Oil, oil or lipid, thermodynamic from solid, Canola Oil; read-out: Solubility by HPLC
measure-name: solubility (µg/mL)
Kindly provide the numeric value in µg/mL only, without the unit symbol.

### Prompt Determine its reported solubility: CC(=O)N1CCc2c(C(=O)N3CCC(c4ccc(F)c(F)c4C(F)(F)F)CC3)n[nH]c2C1
### Response 31

---

- test-protocol: Equilibrium solubility by HPLC, Form C, ambient temperature
- Format: physicochemical
- protocol-conditions: PEG 400, organic solvent or mixture, thermodynamic from solid, PEG 400; read-out: Solubility by HPLC
measure-name: solubility
Give me the value, and tack the unit on after it.

### Prompt Provide solubility value for the following compound: CC(=O)N1CCc2c(C(=O)N3CCC(c4ccc(F)c(F)c4C(F)(F)F)CC3)n[nH]c2C1
### Response 2000 µg/mL

---

- test-protocol: Equilibrium solubility by HPLC, Form C, ambient temperature
- Assay type: physicochemical
- protocol-conditions: Capmul MCM, NF, oil or lipid, thermodynamic from solid, Capmul MCM, NF; read-out: Solubility by HPLC
measure-name: solubility
Returns: string containing the numeric result and its unit.

### Prompt Name the recorded solubility of the compound listed here: CC(=O)N1CCc2c(C(=O)N3CCC(c4ccc(F)c(F)c4C(F)(F)F)CC3)n[nH]c2C1 [Compound 1]
### Response 4400 µg/mL

---

- test-protocol: Estimated solubility by solvent aliquot addition, visual inspection
- Type: physicochemical
- protocol-conditions: water, thermodynamic from solid
- Procedure: Solubilities of Compound 1 in a few solvents were estimated. The experiments were carried out by adding the test solvent in aliquots to weighed portions of solid. […] Solubility numbers were calculated by dividing the total amount of solvent used to dissolve the sample by the weight of the sample. The actual solubilities may be greater than the numbers calculated because of the use of solvent aliquots that were too large or because of slow dissolution rates. […]
measure-name: solubility

### Prompt Look up and report measured solubility for this entry: CC(=O)N1CCc2c(C(=O)N3CCC(c4ccc(F)c(F)c4C(F)(F)F)CC3)n[nH]c2C1
### Response < 1000 µg/mL

---

- test-protocol: Equilibrium solubility by HPLC, Form C, ambient temperature
- Assay type: physicochemical
- protocol-conditions: Corn Oil, oil or lipid, thermodynamic from solid, Corn Oil; read-out: Solubility by HPLC
measure-name: solubility (µg/mL)
Write the answer as a number in µg/mL, unit excluded.

### Prompt # return recorded solubility for entry CC(=O)N1CCc2c(C(=O)N3CCC(c4ccc(F)c(F)c4C(F)(F)F)CC3)n[nH]c2C1
### Response 31

---

- test-protocol: Equilibrium solubility by HPLC, Form C, ambient temperature
- Format: physicochemical
- protocol-conditions: pH 4.5 buffer, pH 4.5, aqueous buffer, thermodynamic from solid, pH 4.5 buffer; Final pH: 4.80; read-out: Solubility by HPLC
measure-name: solubility

### Prompt Using known records, supply solubility for CC(=O)N1CCc2c(C(=O)N3CCC(c4ccc(F)c(F)c4C(F)(F)F)CC3)n[nH]c2C1 [Compound 1]
### Response 1.1 µg/mL
